Numbers sourced from paper PMC4336329.

Let's look at some compounds and their measured hERG current change (%, negative = inhibition) at 10uM.
Molecular target: human ether-à-go-go-related gene (hERG) potassium channel (human);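 further: peak tail current of the secondary pulse compared with the same well before compound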
Sequence (Q12809 whole entry, looked up): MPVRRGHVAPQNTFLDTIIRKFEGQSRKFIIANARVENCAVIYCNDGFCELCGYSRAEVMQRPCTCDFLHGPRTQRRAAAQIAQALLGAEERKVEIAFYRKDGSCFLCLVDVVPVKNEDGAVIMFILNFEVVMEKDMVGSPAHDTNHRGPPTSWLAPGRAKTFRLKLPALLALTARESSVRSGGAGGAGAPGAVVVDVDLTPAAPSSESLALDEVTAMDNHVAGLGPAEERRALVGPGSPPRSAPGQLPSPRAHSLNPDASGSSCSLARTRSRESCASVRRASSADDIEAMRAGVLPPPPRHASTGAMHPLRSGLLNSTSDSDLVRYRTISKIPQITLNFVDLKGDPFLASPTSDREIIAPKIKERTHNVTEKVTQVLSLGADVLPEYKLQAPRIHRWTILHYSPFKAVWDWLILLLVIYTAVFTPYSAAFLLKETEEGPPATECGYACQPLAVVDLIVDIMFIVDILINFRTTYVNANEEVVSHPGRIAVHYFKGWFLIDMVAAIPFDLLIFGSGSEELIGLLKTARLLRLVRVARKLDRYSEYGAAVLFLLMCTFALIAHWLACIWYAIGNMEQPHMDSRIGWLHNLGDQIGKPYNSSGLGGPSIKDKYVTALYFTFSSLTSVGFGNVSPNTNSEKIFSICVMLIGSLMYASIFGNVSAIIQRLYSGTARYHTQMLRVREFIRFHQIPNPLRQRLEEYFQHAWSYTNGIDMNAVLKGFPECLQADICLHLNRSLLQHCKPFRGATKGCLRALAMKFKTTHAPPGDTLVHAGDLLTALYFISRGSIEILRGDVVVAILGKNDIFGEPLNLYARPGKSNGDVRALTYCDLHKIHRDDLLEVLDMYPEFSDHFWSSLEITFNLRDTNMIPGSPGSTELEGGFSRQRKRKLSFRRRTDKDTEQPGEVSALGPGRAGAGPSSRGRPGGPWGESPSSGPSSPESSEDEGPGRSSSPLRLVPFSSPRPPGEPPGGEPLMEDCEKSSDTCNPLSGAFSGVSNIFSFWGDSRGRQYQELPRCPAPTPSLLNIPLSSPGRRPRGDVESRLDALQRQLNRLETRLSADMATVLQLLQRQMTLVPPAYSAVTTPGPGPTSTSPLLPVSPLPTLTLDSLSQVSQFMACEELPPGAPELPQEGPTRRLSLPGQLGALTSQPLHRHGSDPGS
Assay: primary screen, population patch clamp on CHO cells stably expressing hERG; higher = less effect of the substance
In all, about 310,000 compounds went through this assay and about 14,000 (4.5%) showed an effect of 50% or more. The effect is printed as a negative number. This is one part of a sample in which strong results are shown more often than they occur.
Test Readout: hERG current change (%, negative = inhibition) at 10uM (%)

>>> print(df.to_string())
                                    compound  quantity_unit  endpoint_value
 0  CC(=O)c1ccc(OCC(O)COc2ccc(C(C)=O)cc2)cc1              %           -11.3
 1  CCN(CC)CCN1C(=O)c2ccccc2NC1c1ccc(F)cc1 (stereo not drawn)              %           -64.3
 2  O=C(NCCN1CCCCC1)/C(=C/c1ccco1)NC(=O)c1ccccc1              %           -40.6
 3    CCCCc1c(O)nc(SCCN(C)C)n(-c2ccccc2)c1=O              %            10.1
 4  COc1ccc(N2CCN(c3nc(-c4cccs4)nc4ccccc34)CC2)cc1              %            14.4
 5        c1csc(-c2nc(N3CCOCC3)c3ccccc3n2)c1              %           -10.1
 6  CCCc1nc2c(sc3nc4c(cc32)COC(C)(C)C4)c(=O)n1CCN(CC)CC              %           -17.8
 7  Cc1nc2ccccc2n1C1CCN(CC(=O)NCc2ccc(F)cc2)CC1              %             -58
 8       CN1CCN(c2nnc(-c3cccs3)c3ccccc23)CC1              %           -53.9
 9     CCCN1CCN(c2nc(-c3cccs3)nc3ccccc23)CC1              %           -68.6
10  CCN(CC)CCN1C(=O)c2ccccc2NC1c1cc(OC)c(OC)c(OC)c1 (stereo not drawn)              %           -40.7
11           COC(=O)C1CCN(C(=O)Nc2ccccc2)CC1              %            24.3
12  CCCN1CCC(NC(=O)Nc2ccc([N+](=O)[O-])cc2)CC1              %           -32.2
13  COC(=O)c1ccc(OC(C)C(=O)c2ccc(C)cc2)cc1 (stereo not drawn)              %           -21.5
14         CC(=O)c1ccc(OCCOc2ccc(C#N)cc2)cc1              %           -49.4
15  Fc1ccccc1N1CCN(c2nc(-c3cccs3)nc3ccccc23)CC1              %            8.57
16             COc1ccc(C(=O)c2cnc[nH]2)cc1OC              %            10.9
17  CCN(CC)C(=O)C1CCC(CNS(=O)(=O)c2cccc3cccnc23)CC1 (stereo not drawn)              %            4.52
18        c1csc(-c2nnc(N3CCOCC3)c3ccccc23)c1              %           -32.1
19   CN1CCN(C(=S)Nc2ccc([N+](=O)[O-])cc2)CC1              %           -23.1
20  Cn1c(=O)oc2cc(S(=O)(=O)NC3CCN(Cc4ccccc4)CC3)ccc21              %           -36.4
21  COc1ccc(C(=O)N/C(=C\c2ccco2)C(=O)NCCCn2ccnc2)cc1              %           -19.7
22       CN1CCN(c2nc(-c3cccs3)nc3ccccc23)CC1              %           -73.9
23  CCCN1C(=O)c2ccccc2NC1c1ccc(Cl)cc1 (stereo not drawn)              %           -7.23
24  Cc1nn(C)cc1C(C)Nc1nc2nonc2nc1N1CCCCC1 (stereo not drawn)              %           0.196
25                 CCOC(=O)c1ccc(CSC(=N)N)o1              %            17.2
26  O=S(=O)(c1ccccc1)N1CCN(c2nc(-c3cccs3)nc3ccccc23)CC1              %            9.84
27  COc1ccc(C2Nc3ccccc3C(=O)N2c2ccccc2)cc1CN1CCOCC1 (stereo not drawn)              %           -26.7
28  COc1ccc(C(=O)NC(=S)N(CCC(C)C)c2c(N)n(Cc3ccccc3)c(=O)[nH]c2=O)cc1              %            -5.8
29  Cc1nc2c(cnn2-c2ccccc2)c(=O)n1/N=C/c1ccccc1              %            11.9
30  O=C(CSc1nnc(CNc2ccc(F)cc2)o1)N1c2ccccc2Sc2ccccc21              %              11
31  CC1CCC(NC(=O)CN2CCC(n3nnc4cc(F)ccc43)CC2)CC1 (stereo not drawn)              %           -58.4
32  Oc1ccc(N2CCN(c3nc(-c4cccs4)nc4ccccc34)CC2)cc1              %            16.5
33  CC(=O)c1ccc(OCC(C)Oc2ccc(C#N)cc2)cc1 (stereo not drawn)              %           -62.8
34         Cc1cc(C)cc(C(=O)OCC(=O)N2CCCC2)c1              %            9.79
35  Cc1ccc(C(=O)N/C(=C\c2ccco2)C(=O)NCCCn2ccnc2)cc1C              %           -39.8
36  COc1ccc(C2Nc3ccccc3C(=O)N2Cc2ccccc2)cc1CN1CCOCC1 (stereo not drawn)              %           -63.5
37  CCCN1CCN(C(=S)Nc2ccc([N+](=O)[O-])cc2)CC1              %           -52.1
38               CCCCSc1nnc(-c2ccc(C)cc2)n1C              %           -33.7
39       CC1CCN(c2nnc(-c3cccs3)c3ccccc23)CC1              %           -41.6
40               Cc1csc(Nc2ccccc2C(F)(F)F)n1              %            6.46
41  Cc1ccc(C(=O)N/C(=C/c2ccco2)C(=O)NCCCn2ccnc2)cc1              %           -64.7
